Test system: HeLa infected S. Typhimurium SL1344, CFU, 6 h
Experiment: intracellular Salmonella Typhimurium clearance, cell-based, colony forming units, HeLa, SL1344 (AID 1963953)
Settings: at 20 µM
Calls of active or inactive are those of the source.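 Rule for the calls: active = compounds cutting recovered intracellular Salmonella colonies below 0.7 of the DMSO level; inactive = the rest.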
Log the outcome using a class from active, inactive

Some entries whose results are on file:
- MOLECULE: "CC(=O)N1[C@@H]2CC[C@H]1CC(Nc1nc(NCCc3sc(N)nc3C)nc(N3CCn4ncnc4C3)n1)C2 (stereo not given in full)"
  CLASS: "inactive"
- MOLECULE: "CCC(C)(C)C(=O)C(=O)N1CCCC[C@H]1C(=O)N[C@H](CCc1ccc(OC)cc1)C(=O)N1[C@@H]2CC[C@H]1CC(NC(C)=O)C2 (stereo not given in full)"
  CLASS: "inactive"

IN: Please share the test call associated with `CS(C)=O` .
OUT: inactive

IN: Please share the test call associated with CCC(C)(C)C(=O)C(=O)N1CCCC[C@H]1C(=O)N[C@H](CCc1ccc(OC)cc1)C(=O)N1[C@@H]2CC[C@H]1CC(Nc1nc(NCCc3sc(N)nc3C)nc(N3CCn4ncnc4C3)n1)C2 (stereo not given in full) .
OUT: active

IN: Please share the test call associated with CCC(C)(C)C(=O)C(=O)N1CCCC[C@H]1C(=O)N[C@H](CCc1ccc(OC)cc1)C(=O)N1[C@@H]2CC[C@H]1CC(Nc1nc(NCCc3ccccc3)nc(N3CCn4ncnc4C3)n1)C2 (stereo not given in full) .
OUT: active
